test system: HepG2 cells; test: Cytotoxicity against HepG2 cell line (CellTiter-Glo); assay type: cell-based; details: Homo sapiens, 48 h; HepG2, 2 days incubation; read-out: IC50 (concentration required to reduce the viability of HepG2 cells by 50%)
For each record, check the reported IC50: if it is below 50 µM write Met, else write Not met.

{"columns": ["Compound", "Assigned class"],
 "data": [
  ["COc1ccc(CCNc2cc(-c3ccc(C)cc3)nc3ncnn23)cc1", "Met"],
  ["COc1ccc(CCNc2cc(-c3ccccc3)nc3ncnn23)cc1", "Not met"],
  ["COc1ccc(CCNc2cc(-c3cccnc3)nc3ncnn23)cc1", "Not met"],
  ["COc1ccc(CC(=O)Nc2cc(-c3ccccc3)nc3ncnn23)cc1", "Not met"],
  ["COc1ccc(CCNc2cc(-c3ccccc3OC)nc3ncnn23)cc1", "Not met"],
  ["Fc1ccc(CCNc2cc(-c3ccccn3)nc3ncnn23)cc1", "Not met"],
  ["Clc1ccc(CCNc2cc(-c3ccccn3)nc3ncnn23)cc1", "Not met"],
  ["c1ccc(CCNc2cc(-c3ccccc3)nc3ncnn23)cc1", "Met"],
  ["COc1ccc(CCNc2cc(C3CCCC3)nc3ncnn23)cc1", "Not met"],
  ["COc1ccc(CCNc2cc(Cc3ccccc3)nc3ncnn23)cc1", "Not met"],
  ["COc1ccc(CCNc2cc(C)nc3ncnn23)cc1", "Not met"],
  ["COc1ccc(CCNc2cc(C3CCC3)nc3ncnn23)cc1", "Not met"],
  ["CCCNc1cc(-c2ccccc2)nc2ncnn12", "Not met"],
  ["c1ccc(-c2cc(NCCC3CCCCC3)n3ncnc3n2)cc1", "Not met"],
  ["COc1ccc(C2CCCN(c3cc(-c4ccccn4)nc4ncnn34)C2)cc1 (stereo not shown)", "Met"],
  ["COc1ccc(CCNc2cc(-c3ccccn3)nc3ccnn23)cc1", "Met"],
  ["c1ccc(-c2cc(NCCc3ccncc3)n3ncnc3n2)cc1", "Not met"],
  ["CCc1cc(NCCc2ccc(OC)cc2)n2ncnc2n1", "Not met"],
  ["COc1ccc(CCNc2cc(-c3ccc(OC)cc3)nc3ncnn23)cc1", "Not met"],
  ["CCNc1cc(-c2ccccc2)nc2ncnn12", "Met"],
  ["Cc1ccc(CCNc2cc(-c3ccccc3)nc3ncnn23)cc1", "Not met"],
  ["c1ccc(-c2cc(NCCc3cccnc3)n3ncnc3n2)nc1", "Not met"],
  ["CCc1ccc(CCNc2cc(-c3ccccc3)nc3ncnn23)cc1", "Not met"],
  ["COc1ccc(CCNc2cc(-c3ccccn3)nc3ncnn23)cc1", "Not met"],
  ["FC(F)(F)Oc1ccc(CCNc2cc(-c3ccccn3)nc3ncnn23)cc1", "Not met"],
  ["FC(F)(F)c1ccc(CCNc2cc(-c3ccccc3)nc3ncnn23)cc1", "Not met"],
  ["c1ccc(-c2cc(NCCc3cccnc3)n3ncnc3n2)cc1", "Not met"],
  ["COc1ccc(CCNc2cc(-c3ccccn3)nc3nccn23)cc1", "Met"],
  ["COc1ccc(CCNc2cc(-c3ccc(C(F)(F)F)cc3)nc3ncnn23)cc1", "Not met"],
  ["COc1ccc(CCNc2cc(-c3ccccn3)nc3nc(C)nn23)cc1", "Not met"],
  ["COc1ccc(CCN(C)c2cc(-c3ccccc3)nc3ncnn23)cc1", "Met"],
  ["c1ccc(-c2cc(NC3CC3)n3ncnc3n2)cc1", "Not met"],
  ["COc1ccc(CNc2cc(-c3ccccc3)nc3ncnn23)cc1", "Met"],
  ["c1ccc(-c2cc(NCCc3ccccn3)n3ncnc3n2)cc1", "Not met"],
  ["c1ccc(-c2cc(NC3CCC3)n3ncnc3n2)cc1", "Not met"],
  ["COc1ccc(CCNc2cc(-c3ccncc3)nc3ncnn23)cc1", "Not met"]
]}
